meta.source: paper PMC12061717

- Test Target: CbuqOBP1 (Cyrtotrachelus buqueti)
- Run Description: Fluorescence competition binding assay with 1-NPN as probe
- Experimental Setup: recombinant CbuqOBP1 and 1-NPN both 2 μM, 50 mM Tris-HCl pH 7.4, room temperature; read-out: IC50
- Protocol: The fluorescence competition binding assays were carried out with a F-7000 fluorescence spectrophotometer (Hitachi, Tokyo, Japan) at room temperature using a 1 cm wide light-path fluorimeter quartz cuvette and 10 nm slits for both excitation and emission. […] N-phenyl-1-naphthylamine (1-NPN) (Aladdin Biochemical Technology Co., LTD., Shanghai, China) was used as the fluorescent probe. The probe was excited at 337 nm and emission spectra were recorded between 350 and 550 nm. […]
Measurement Type: IC50 (µM)

# Compound, Measurement Type, Measured
records = [
    ("CCCCCC(=O)OCC [Ethyl hexanoate]", "IC50", 21),
    ("CCCC/C=C/C=C/C=O [trans,trans-2,4-Nonadienal]", "IC50", 24.3),
]

###

The reader will find pKi measurements below, all made with CbuqOBP1 (Cyrtotrachelus buqueti, UniProt A0A1L3KPS8).
Sequence (A0A1L3KPS8 entry or part of it): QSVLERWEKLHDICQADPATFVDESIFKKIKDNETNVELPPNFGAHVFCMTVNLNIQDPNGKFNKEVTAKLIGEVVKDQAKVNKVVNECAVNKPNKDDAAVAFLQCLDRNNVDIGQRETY
pKi: −log10 of the molar value.

# Compound, Test Target, pKi
rows = [
    ("CCCCCC(=O)OCC [Ethyl hexanoate]", "CbuqOBP1 (Cyrtotrachelus buqueti, UniProt A0A1L3KPS8)", 4.71),
    ("CCCC/C=C/C=C/C=O [trans,trans-2,4-Nonadienal]", "CbuqOBP1 (Cyrtotrachelus buqueti, UniProt A0A1L3KPS8)", 4.65),
]

###

- Test Target: CbuqOBP1 (Cyrtotrachelus buqueti, UniProt A0A1L3KPS8)
- Run Description: Binding of fluorescent probe 1-NPN to CbuqOBP1 (titration, Scatchard plot)
- Experimental Setup: 2 μM protein titrated with 1-NPN 2 to 40 μM, read-out: K 1-NPN (dissociation constant of CbuqOBP1/1-NPN complex)
Measurement Type: Kd (µM)

# Compound, Measured
records = [
    ("c1ccc(Nc2cccc3ccccc23)cc1 [1-NPN, N-phenyl-1-naphthylamine]", 24.2),
]

###

- Test Target: CbuqOBP1 (Cyrtotrachelus buqueti, UniProt A0A1L3KPS8)
- Run Description: Fluorescence competition binding assay with 1-NPN as probe
Measurement Type: IC50 (µM)

# Compound, Measured
rows = [
    ("C=C(C)[C@H]1CC=C(C)CC1 [(+)-Limonene]", 18.8),
    ("Cc1cccc(C)c1", 36),
    ("C=Cc1ccccc1", 22.1),
    ("C[C@@H]1CC[C@H]2C(C)(C)[C@H]3C[C@@]12CC[C@@]3(C)O", 40.3),
    ("C=CC(C)(O)CCC=C(C)C (stereo not shown)", 14.5),
    ("c1ccc2scnc2c1", 12),
    ("Oc1ccccc1", 11.4),
]
